Hello, the source for this data is paper PMC5540273, in case you need it.

Test system: ROCK2
CONDITION: concentration: 1 μM, replicates: in singlicate; n = 1;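 further: KINOMEscan kinase panel screen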
ENDPOINT NAME: %Inh (%)
Numbers only, in %.

// worked examples, %Inh included
- COMPOUND: "Nc1ncnc2c1ncn2-c1cccc2ccccc12 [SKF-97184]"
  ENDPOINT NAME: "%Inh"
  OUTPUT UNIT: "%"
  NUMBER: 0
- COMPOUND: "CCc1nc(-c2cccc(C)c2)c(-c2ccncc2)s1"
  ENDPOINT NAME: "%Inh"
  OUTPUT UNIT: "%"
  NUMBER: 0
- COMPOUND: "O=C(Nc1ccc2c(c1)OCO2)NC1CCN(c2ccnc(NCc3ccc(F)cc3)n2)CC1 [GSK1379859]"
  ENDPOINT NAME: "%Inh"
  OUTPUT UNIT: "%"
  NUMBER: 47
- COMPOUND: "O=C(Nc1n[nH]c2nc(-c3ccccc3)c(Cl)cc12)C1CC1 [SB-734909]"
  ENDPOINT NAME: "%Inh"
  OUTPUT UNIT: "%"
  NUMBER: 6
- COMPOUND: "COc1cc(OC)cc(-c2cc3cnc(N)nc3nc2NC(=O)NC(C)(C)C)c1"
  ENDPOINT NAME: "%Inh"
  OUTPUT UNIT: "%"
  NUMBER: 0

For each of the compounds below, state %Inh.
1. Nc1ncnc2c1ncn2-c1ccc(Cl)cc1 [AH2635]
2. O=c1cc(N2CCOCC2)nc2n(Cc3ccc(F)c(Cl)c3)ccn12 [GSK2297099]
3. Cn1c(=O)c(F)c(Nc2ccc(I)cc2F)c2c(=O)n(OC[C@H](O)CO)cnc21
4. Nc1nc(N)c2nc(-c3ccccc3)[nH]c2n1 [SKF-12778]

Result:
1. 0
2. 0
3. 0
4. 24

Ask: Notebook: pull reported %Inh for ROCK2, entry COc1cc2ncn(-c3cc(OCCCc4ccccc4)c(C(N)=O)s3)c2cc1OC [GSK205189]
Result: 0

* * *

Give measured %Inh for each item. Keep answers brief.
Tested on: RIPK5
CONDITION: concentration: 1 μM, replicates: in singlicate; n = 1
Answers are plain numbers, in %.

Use the examples below as a reference point.
- COMPOUND: "COc1cc(Nc2ccnc3ccc(C(F)(F)F)cc23)cc(OC)c1OC"
  OUTPUT UNIT: "%"
  %Inh: 0
- COMPOUND: "COc1cc2nccc(Nc3cccc(Oc4ccccc4)c3)c2cc1OC.Cl"
  OUTPUT UNIT: "%"
  %Inh: 0
- COMPOUND: "COc1ccc(CNC(=O)NC2CCN(c3ccnc(Nc4ccc(F)cc4)n3)C2)cc1 (stereo not drawn)"
  OUTPUT UNIT: "%"
  %Inh: 15

Field: %Inh. Fill in for each record below.
1. COc1cccc(-n2cnc3c(N)ncnc32)c1
2. CN(C)c1cc(-c2ccc3c(N)n[nH]c3c2)nc(N)n1
3. Cc1nc(N(C)[C@H]2CN(C(=O)CC#N)CC[C@H]2C)c2cc[nH]c2n1
4. O=c1cc(N2CCOCC2)nc2n(Cc3ccc(F)c(Cl)c3)ccn12
5. Nc1nc(N)c2nc(-c3ccccc3)[nH]c2n1
6. Cc1c(Cn2c(C)nn3c(=O)cc(N4CCO[C@H](C)C4)nc23)cccc1C(F)(F)F

Result:
[18, 0, 17, 0, 0, 0]
